Reference for the values: ChEMBL document CHEMBL1201862

- ASSAY TARGET: Kappa-type opioid receptor (Homo sapiens)
- Sequence (P41145 whole entry): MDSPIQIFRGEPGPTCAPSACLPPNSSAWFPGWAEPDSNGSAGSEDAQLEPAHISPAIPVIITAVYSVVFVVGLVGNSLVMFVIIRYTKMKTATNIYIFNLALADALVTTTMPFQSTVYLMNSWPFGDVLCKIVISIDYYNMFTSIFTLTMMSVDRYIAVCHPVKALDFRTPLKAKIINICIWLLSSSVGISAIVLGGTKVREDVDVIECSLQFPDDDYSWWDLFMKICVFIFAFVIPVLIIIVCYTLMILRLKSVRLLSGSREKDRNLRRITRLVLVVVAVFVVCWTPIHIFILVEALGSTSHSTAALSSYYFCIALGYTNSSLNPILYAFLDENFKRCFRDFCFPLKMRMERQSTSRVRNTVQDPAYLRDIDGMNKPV
- Assay type: functional
OUTCOME MEASURE: EC50

The molecule "Nc1ccc(C2(c3ccc(N)cc3)c3ccccc3-c3ccccc32)cc1" showed EC50 equal to > 35 µM

----------
- ASSAY TARGET: DNA dC->dU-editing enzyme APOBEC-3G (Homo sapiens)
- Sequence (Q9HC16 whole entry): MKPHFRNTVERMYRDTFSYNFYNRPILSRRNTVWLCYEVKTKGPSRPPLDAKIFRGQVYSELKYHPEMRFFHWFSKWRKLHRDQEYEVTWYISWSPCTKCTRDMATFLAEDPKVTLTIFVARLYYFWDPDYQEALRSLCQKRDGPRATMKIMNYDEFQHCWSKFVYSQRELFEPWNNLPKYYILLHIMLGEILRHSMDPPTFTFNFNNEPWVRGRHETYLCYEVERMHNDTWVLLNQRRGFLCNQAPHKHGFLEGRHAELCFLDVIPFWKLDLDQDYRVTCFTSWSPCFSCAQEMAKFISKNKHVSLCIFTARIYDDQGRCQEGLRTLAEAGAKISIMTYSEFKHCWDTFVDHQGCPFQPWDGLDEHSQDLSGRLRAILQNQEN
- METHOD SUMMARY: Dose Response confirmation of small molecule APOBEC3G DNA Deaminase Inhibitors via a fluorescence-based single-stranded DNA deaminase assay. [Related pubchem assays (depositor defined):AID493012, AID493028]
- Type: functional
Active and inactive are the calls of the source.
Response enum: true (1) for active, false (0) for inactive

MOLECULE: O=C(O)c1ccc(/C=N/n2cc(-c3ccccc3)nc2S)cc1
CATEGORY LABEL: true (1)

MOLECULE: CSc1n/c(=N/C(C)=O)ss1
CATEGORY LABEL: true (1)

MOLECULE: CCCOC(=O)c1c(NC(=O)C2CCCO2)sc(C(=O)OC)c1C (stereo not given)
CATEGORY LABEL: true (1)

MOLECULE: CCn1c(S)nnc1CSc1nc2ccccc2s1
CATEGORY LABEL: true (1)

stdin: Assay result, entry "CCOc1ccc(Nc2nc3cc(S(=O)(=O)N(CC)CC)ccc3o2)cc1" — outcome?
stdout: false (0)

----------
- METHOD SUMMARY: inhibitors of firefly luciferase expression or activity, dose response, H4 neuroglioma cells, luminescence (AID 1990)
- Assay type: functional, cell-based
Active and inactive are the calls of the source.
Exercise: for every item that follows, state its recorded EC50.

COMPOUND: CN1CCN(C(c2ccc(C(F)(F)F)cc2)c2cc(Cl)c3cccnc3c2O)CC1 (stereo not drawn)
ENDPOINT RESULT: 10.5 µM (active)

COMPOUND: Cc1ccc(N2C(=O)c3cccc4c(N)ccc(c34)C2=O)c2cccnc12
ENDPOINT RESULT: < 0.1 µM (active)

Please report EC50 for every entry that follows.
1. COc1ccc(CNC[C@@H](CCCCN(C)Cc2ccc(OC)cc2)N2C[C@H](c3ccccc3)N(CCc3ccc(Cl)c(Cl)c3)C(=O)C2=O)cc1
2. COc1ccc(CCCC(=O)N/N=C/c2cccc(OC)c2O)cc1C

stdout:
1: > 120 µM (not active); 2: 11.1 µM (active)

Please look at the items below and tell me EC50 for each one, in order.
1. C/C=C(\C)C(=O)OC1C(C)=C2C(C1OC(=O)CCCCC)C(C)(OC(C)=O)CC(OC(=O)CCC)C1(O)C2OC(=O)C1(C)O (stereo not drawn)
2. O=C1NCCc2c1[nH]c1ccc([N+](=O)[O-])cc21
3. COc1ccc(NN/C=C2/C(=O)NC(=O)N(c3ccc(C)c(C)c3)C2=O)cc1
4. CC(C)OCCCNc1nc2c(c(=O)n(Cc3ccccc3F)c(=O)n2C)n1C

stdout:
1: < 0.1 µM (active); 2: 12.9 µM (active); 3: 15.2 µM (active); 4: 16.8 µM (active)

----------
Assignment: determine reported EC50 for the given molecules.
- Test system: H4
- METHOD SUMMARY: Luminescence Cell-Based Dose Response HTS to Identify Activators of 5'UTR Stem-Loop Driven Prion Protein mRNA Translation in H4 Neuroglioblastoma Cells. [Related pubchem assays: 1829 (Project Summary), 1814 (Primary HTS)]
- Assay type: functional
- SETTINGS: Homo sapiens
Calls of active or inactive are those of the source.

Recorded EC50, per entry:
SUBSTANCE SMILES: CC(C)(C)C(=O)c1cn(CC(=O)NCc2ccco2)c2ccccc12
ASSAY TARGET: H4
EC50: 13.2 µM (active)

SUBSTANCE SMILES: CCCn1c(=O)c2ccccc2n2c(SCc3nc4ccccc4s3)nnc12
ASSAY TARGET: H4
EC50: 5.47 µM (active)

Could I get EC50 for every one of these entries?
1. c1ccc2c(COn3nnc4ccccc43)cccc2c1
2. Fc1cccc(CSc2nc3cc[nH]cc-3n2)c1
3. COc1ccc(Oc2nccc(-c3ccccc3)c2C#N)cc1
4. COc1cccc(-c2nc(O)c3c4c(sc3n2)CCCCC4)c1
5. Cn1cccc1C(=O)OCC(=O)Nc1ccc2c(c1)CCC2
6. CC(=O)Nc1ccc(/C=C/c2n[nH]c(-c3ccccc3O)n2)cc1

stdout:
1. > 120 µM (not active)
2. 19.2 µM (active)
3. 11.8 µM (active)
4. 11.6 µM (active)
5. 47.9 µM (inconclusive)
6. 1.33 µM (active)

----------
- ASSAY TARGET: Cyclin-dependent kinase 5/CDK5 activator 1 (Homo sapiens)
- Sequence (Q00535 whole entry): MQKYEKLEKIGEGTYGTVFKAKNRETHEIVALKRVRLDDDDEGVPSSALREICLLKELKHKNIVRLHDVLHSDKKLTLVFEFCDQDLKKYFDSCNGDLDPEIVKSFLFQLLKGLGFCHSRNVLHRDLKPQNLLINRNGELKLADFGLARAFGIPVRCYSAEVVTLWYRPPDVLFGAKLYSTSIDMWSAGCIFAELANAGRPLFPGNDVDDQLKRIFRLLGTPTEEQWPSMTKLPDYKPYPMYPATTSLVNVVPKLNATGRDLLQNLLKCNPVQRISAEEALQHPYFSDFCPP
- Sequence (Q15078 whole entry, further chain): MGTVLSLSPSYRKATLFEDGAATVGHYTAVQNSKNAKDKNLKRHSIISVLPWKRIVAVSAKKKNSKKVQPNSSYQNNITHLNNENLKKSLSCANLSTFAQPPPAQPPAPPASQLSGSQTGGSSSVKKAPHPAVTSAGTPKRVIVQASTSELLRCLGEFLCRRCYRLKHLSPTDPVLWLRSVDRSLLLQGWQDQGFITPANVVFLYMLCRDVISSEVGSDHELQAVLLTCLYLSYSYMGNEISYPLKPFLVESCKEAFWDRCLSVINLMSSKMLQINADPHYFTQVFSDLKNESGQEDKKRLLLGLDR
- METHOD SUMMARY: CDK5/p35 kinase inhibitors, dose response, biochemical, cherry-picked samples, set 2 (AID 504545)
The source made the active and inactive calls.
OUTCOME MEASURE: AC50

Consider the reported AC50 for these molecules:
MOLECULE: Cc1n[nH]c(O)c1C(c1ccccc1[N+](=O)[O-])C(C#N)C#N (centres undefined)
AC50: 61.1 µM (active)
--
MOLECULE: CC1(C)Cc2c(ccc3ccccc23)C(=O)N1
AC50: 22.4 µM (active)
--
MOLECULE: Nc1nc(Nc2ccccc2)sc1C(=O)c1ccccc1
AC50: 2.27 µM (active)

Here is the next item to consider.
Notebook: "Cc1cc(-c2nsc(=O)o2)c(S(C)(=O)=O)s1" , AC50 read as 29.3 µM (active)

----------
- ASSAY TARGET: Long-chain-fatty-acid--AMP ligase FadD28 (Mycobacterium tuberculosis, UniProt P9WQ59)
- Sequence (P9WQ59 whole entry): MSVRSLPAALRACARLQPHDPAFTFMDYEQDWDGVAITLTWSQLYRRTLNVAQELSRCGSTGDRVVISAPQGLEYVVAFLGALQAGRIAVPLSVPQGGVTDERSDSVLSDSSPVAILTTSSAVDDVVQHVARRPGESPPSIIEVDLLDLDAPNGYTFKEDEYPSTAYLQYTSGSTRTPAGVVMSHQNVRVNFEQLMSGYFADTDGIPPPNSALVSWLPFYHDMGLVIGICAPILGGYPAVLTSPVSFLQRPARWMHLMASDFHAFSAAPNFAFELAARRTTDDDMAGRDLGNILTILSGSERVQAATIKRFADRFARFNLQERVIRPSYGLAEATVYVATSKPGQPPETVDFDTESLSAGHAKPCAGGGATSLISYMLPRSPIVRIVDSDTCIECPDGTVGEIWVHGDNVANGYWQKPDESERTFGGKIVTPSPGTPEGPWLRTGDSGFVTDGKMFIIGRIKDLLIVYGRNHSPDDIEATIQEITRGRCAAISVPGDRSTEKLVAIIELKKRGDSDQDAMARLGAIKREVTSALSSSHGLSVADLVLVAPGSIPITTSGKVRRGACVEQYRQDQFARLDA
- METHOD SUMMARY: Fluorescence polarization aasay to screen for inhibitors that compete for the binding of FadD28 to a bisubstrate Measured in Biochemical System Using Plate Reader - 2147-01_Inhibitor_Dose_CherryPick_Activity.
- Type: functional, Mycobacterium tuberculosis H37Rv
Activity calls are given as the source filed them.
I'd be grateful if you could share measured AC50 for these entries.

Example entries begin here.
MOLECULE: COc1ccc(NC(=O)CNc2ccccc2N2CCCC2=O)cc1S(=O)(=O)N1CCOCC1
ENDPOINT RESULT: 34.1 µM (active)
//
MOLECULE: CC(C(=O)Nc1ccc(O)cc1C(=O)O)N1C(=O)/C(=C\c2cccs2)SC1=S (stereo not given)
ENDPOINT RESULT: 49.3 µM (active)
//
MOLECULE: Nc1ncnc2c1ncn2[C@@H]1O[C@H](CNCc2ccc(OCc3ccccc3)cc2)[C@@H](O)[C@H]1O
ENDPOINT RESULT: 64.2 µM (active)

Hi there! I need AC50 for each item below, if you can.
1. COc1cccc(NC(=O)CN(C)C(=O)c2cc3c(s2)CCCCC3)c1
2. CCCCCCCCSC1=CC(=O)C(OC)=C(OC)C1=O

stdout:
["84 µM (active)", "30.9 µM (active)"]

----------
Would you mind telling me the reported AC50 of each entry?
- ASSAY TARGET: Cytochrome P450 2C19 (Homo sapiens, UniProt P33261)
- Sequence (P33261 whole entry): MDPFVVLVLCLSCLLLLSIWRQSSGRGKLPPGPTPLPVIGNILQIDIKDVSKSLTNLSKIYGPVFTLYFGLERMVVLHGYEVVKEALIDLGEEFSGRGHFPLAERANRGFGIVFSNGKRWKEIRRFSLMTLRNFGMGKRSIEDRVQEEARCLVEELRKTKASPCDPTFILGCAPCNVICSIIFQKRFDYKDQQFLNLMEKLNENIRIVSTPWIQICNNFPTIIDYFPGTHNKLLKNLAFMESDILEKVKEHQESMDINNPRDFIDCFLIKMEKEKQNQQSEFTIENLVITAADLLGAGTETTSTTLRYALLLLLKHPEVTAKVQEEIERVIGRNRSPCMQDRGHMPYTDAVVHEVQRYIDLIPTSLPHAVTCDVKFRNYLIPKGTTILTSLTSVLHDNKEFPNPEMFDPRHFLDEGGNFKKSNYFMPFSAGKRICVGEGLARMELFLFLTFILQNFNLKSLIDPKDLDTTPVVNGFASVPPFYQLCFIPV
- METHOD SUMMARY: Cytochrome panel assay with activity outcomes. Panel member name: p450-cyp2c19 Compounds with AC50 equal or less than 10 uM are considered active
- Format: functional
- SETTINGS: read-out: AC50

Check out these entries, answers already filled in.
COMPOUND: O=C(O)C1CCN(c2ncccn2)CC1
ENDPOINT RESULT: 0.0316 µM (inconclusive)
--
COMPOUND: Cc1cnc(CNc2nc(-c3ccccc3C(F)(F)F)nc3ccccc23)cn1
ENDPOINT RESULT: 39.8 µM (inconclusive)
--
COMPOUND: CCCCNC(=O)C1CCN(Cc2ccccn2)CC1
ENDPOINT RESULT: 35.5 µM (inconclusive)
--
COMPOUND: CC(=O)OC1COC(N2CCc3cc([N+](=O)[O-])ccc32)C(OC(C)=O)C1OC(C)=O (stereo unspecified)
ENDPOINT RESULT: 3.98 µM (inconclusive)
--
COMPOUND: CCOc1cccc(NC(=O)CSc2nc(C)c3c(c2C#N)CCCC3)c1
ENDPOINT RESULT: 0.178 µM (inconclusive)

Quick one: give me AC50 for each item below, same order please.
1. N#C/C(=C\c1ccc(O)c(O)c1)C(=O)NCc1ccccc1
2. COc1ccc2oc(C(=O)c3ccccc3)c(N)c2c1
3. CCc1noc(C)c1C(=O)Nc1nc(-c2cc(C)ccc2C)c(C)s1
4. Clc1ccccc1-c1nc(NCCN2CCOCC2)c2ccccc2n1
5. Cc1ccc(C(=O)Nc2ccc(N3CCOCC3)nc2)cc1
6. Cc1ccccc1-c1ccc2ncnc(N3CCNCC3)c2c1

stdout:
["25.1 µM (inconclusive)", "5.01 µM (inconclusive)", "7.08 µM (inconclusive)", "25.1 µM (inconclusive)", "2.82 µM (inconclusive)", "15.8 µM (inconclusive)"]

Okay, here is my list. What is AC50 for each of these?
1. CCOC(=O)Nc1ccc2c(c1)N(C(=O)CCN1CCN(C)CC1)c1ccccc1S2
2. CCOC(=O)c1sc(NC(=O)CCCCCN2C(=O)c3cccc4cccc(c34)C2=O)nc1C

stdout:
1. 1.26 µM (inconclusive)
2. 6.31 µM (inconclusive)
